Provenance of the data: ChEMBL document CHEMBL3526003

- TEST_METHOD_NOTES: Cmax in human at 300 mg, po administered as one-film coated tablet by high-performance liquid chromatography
- Format: ADME, organism-based
- Parameters: dose 300 mg, route oral
- CONDITION_INFO: in vivo
EXPERIMENTAL_READOUT: Cmax (nM)
# unit: nM | format: bare number

(Q) // lookup Cmax for NC(=O)N1c2ccccc2CC(=O)c2ccccc21 [OXCARBAZEPINE]
(A) 2000
